Origin of values: ChEMBL document CHEMBL4699645

IC50 by entry:
- System tested: Neuronal acetylcholine receptor; alpha3/beta2 (Rattus norvegicus, UniProt P04757+P12390)
- Sequence (P04757 whole entry): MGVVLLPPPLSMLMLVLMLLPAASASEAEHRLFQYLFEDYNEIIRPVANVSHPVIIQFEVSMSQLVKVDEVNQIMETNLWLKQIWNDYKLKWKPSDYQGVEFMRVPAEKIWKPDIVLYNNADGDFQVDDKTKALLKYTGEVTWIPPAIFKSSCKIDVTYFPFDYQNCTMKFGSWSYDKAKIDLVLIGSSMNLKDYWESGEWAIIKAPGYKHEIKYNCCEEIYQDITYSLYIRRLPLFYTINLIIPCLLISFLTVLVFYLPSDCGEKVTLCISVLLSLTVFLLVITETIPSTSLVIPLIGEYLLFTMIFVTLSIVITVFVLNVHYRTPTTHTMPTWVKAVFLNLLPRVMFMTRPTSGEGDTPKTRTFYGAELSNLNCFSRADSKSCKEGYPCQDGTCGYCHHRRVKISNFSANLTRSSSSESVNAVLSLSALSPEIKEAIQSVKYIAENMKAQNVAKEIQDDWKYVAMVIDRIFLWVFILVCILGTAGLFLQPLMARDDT
- Sequence (P12390 whole entry): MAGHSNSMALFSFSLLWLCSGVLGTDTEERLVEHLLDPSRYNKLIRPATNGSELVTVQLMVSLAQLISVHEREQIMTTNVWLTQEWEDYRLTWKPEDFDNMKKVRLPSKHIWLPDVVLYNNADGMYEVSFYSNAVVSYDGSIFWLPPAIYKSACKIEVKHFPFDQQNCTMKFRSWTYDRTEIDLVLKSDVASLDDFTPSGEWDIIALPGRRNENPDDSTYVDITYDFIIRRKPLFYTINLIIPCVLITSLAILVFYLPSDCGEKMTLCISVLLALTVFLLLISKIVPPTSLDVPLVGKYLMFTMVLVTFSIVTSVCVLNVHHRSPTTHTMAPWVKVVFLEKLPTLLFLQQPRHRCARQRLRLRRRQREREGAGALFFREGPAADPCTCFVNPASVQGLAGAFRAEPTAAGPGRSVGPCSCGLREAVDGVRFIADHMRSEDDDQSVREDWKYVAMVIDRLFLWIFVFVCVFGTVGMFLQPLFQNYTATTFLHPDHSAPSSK
- Assay explanation: Antagonist activity at rat alpha3beta2 nAChR expressed in Xenopus laevis oocytes assessed as inhibition of Ach-induced response at -70 mV holding potential incubated for 5 mins by voltage-clamp assay
Where a SMILES comes first, the peptide text is derived from it. Bridges are numbered along the chain shown (N, C = ends).
Quantity kind: IC50 (nM)

- CC[C@H](C)[C@@H]1NC(=O)[C@H](CCC(=O)O)NC(=O)[C@@H]2CCCN2C(=O)[C@H](Cc2cnc[nH]2)NC(=O)[C@H](CC(=O)O)NC(=O)[C@H](C(C)C)NC(=O)[C@H](CCCCN)NC(=O)[C@@H]2CSSC[C@H](NC(=O)CN)C(=O)N[C@@H](CSSC[C@@H](C(N)=O)NC1=O)C(=O)N[C@@H](CO)C(=O)N[C@@H](Cc1cnc[nH]1)C(=O)N1CCC[C@H]1C(=O)N[C@@H](C)C(=O)N2 (H-GCCSHPACKVDHPEIC-NH2; disulfide 2-8, 3-16): 3.8
- CC[C@H](C)[C@@H]1NC(=O)[C@H](C)NC(=O)[C@@H]2CCCN2C(=O)[C@H](Cc2cnc[nH]2)NC(=O)[C@H](CC(=O)O)NC(=O)[C@H](C(C)C)NC(=O)[C@H](CC(N)=O)NC(=O)[C@@H]2CSSC[C@H](NC(=O)CN)C(=O)N[C@@H](CSSC[C@@H](C(N)=O)NC1=O)C(=O)N[C@@H](CO)C(=O)N[C@@H](Cc1cnc[nH]1)C(=O)N1CCC[C@H]1C(=O)N[C@@H](C)C(=O)N2 (H-GCCSHPACNVDHPAIC-NH2; disulfide 2-8, 3-16): 29
- CC[C@H](C)[C@@H]1NC(=O)[C@H](CCC(=O)O)NC(=O)[C@@H]2CCCN2C(=O)[C@H](Cc2cnc[nH]2)NC(=O)[C@H](C)NC(=O)[C@H](C(C)C)NC(=O)[C@H](CC(N)=O)NC(=O)[C@@H]2CSSC[C@H](NC(=O)CN)C(=O)N[C@@H](CSSC[C@@H](C(N)=O)NC1=O)C(=O)N[C@@H](CO)C(=O)N[C@@H](Cc1cnc[nH]1)C(=O)N1CCC[C@H]1C(=O)N[C@@H](C)C(=O)N2 (H-GCCSHPACNVAHPEIC-NH2; disulfide 2-8, 3-16): 12
- CC(C)[C@@H]1NC(=O)[C@H](CC(N)=O)NC(=O)[C@@H]2CSSC[C@H](NC(=O)CN)C(=O)N[C@@H](CSSC[C@@H](C(N)=O)NC(=O)[C@H](C)NC(=O)[C@H](CCC(=O)O)NC(=O)[C@@H]3CCCN3C(=O)[C@H](Cc3cnc[nH]3)NC(=O)[C@H](CC(=O)O)NC1=O)C(=O)N[C@@H](CO)C(=O)N[C@@H](Cc1cnc[nH]1)C(=O)N1CCC[C@H]1C(=O)N[C@@H](C)C(=O)N2 (H-GCCSHPACNVDHPEAC-NH2; disulfide 2-8, 3-16): 1080
- CC[C@H](C)[C@@H]1NC(=O)[C@H](CCC(=O)O)NC(=O)[C@@H]2CCCN2C(=O)[C@H](Cc2cnc[nH]2)NC(=O)[C@H](CC(=O)O)NC(=O)[C@H](C(C)C)NC(=O)[C@H](C)NC(=O)[C@@H]2CSSC[C@H](NC(=O)CN)C(=O)N[C@@H](CSSC[C@@H](C(N)=O)NC1=O)C(=O)N[C@@H](CO)C(=O)N[C@@H](Cc1cnc[nH]1)C(=O)N1CCC[C@H]1C(=O)N[C@@H](C)C(=O)N2 (H-GCCSHPACAVDHPEIC-NH2; disulfide 2-8, 3-16): 2.1
